Value source: PubChem BioAssay

Please go through the items and note down their viability.
assay: reversal of MRP1-mediated doxorubicin resistance, pilot screen, H69AR cells, doxorubicin co-treatment (AID 601); conditions: H69AR cells, CellTiter-Glo, 72 h; compound alone cytotoxicity; at 10 µM
One number for each entry, in %.

> print(dat)
                                   molecule  units  observed
1  O=C(C1CCCN(S(=O)(=O)c2cccnc2)C1)N1CCN(c2ccccn2)CC1 (stereo not given)      %      98.7

Each molecule below has a recorded value; state its viability.
1. C=CCn1c(SCC(=O)O)nnc1-c1cccc(Cl)c1
2. O=C1CC(c2ccc(Cl)cc2)n2nc(N3C(=O)c4ccccc4C3=O)nc2N1 (stereo not given)
3. COc1ccc(CCNS(=O)(=O)c2ccc3oc(C(=O)O)c(C)c3c2)cc1OC
4. O=C(OCc1cc2ccccc2[nH]c1=O)c1ccncc1
5. CSCSC1=C(C#N)C(c2ccc(Cl)cc2)C(C(C)=O)=C(C)N1 (stereo not given)
6. CCOC(=O)C(C)(C)Sc1nc2c(cnn2-c2ccc(C)cc2)c(=O)[nH]1
7. COc1ccc(-c2noc(CSc3nc(N)c(-c4ccccc4)c(=O)[nH]3)n2)cc1OC

1. 109
2. 91.8
3. 88.7
4. 79.2
5. 75.2
6. 79.9
7. 84.7

Each molecule below has a recorded value; state its viability.
1. CCn1cc(C(=O)N=c2sc3ccccc3n2C)c(=O)c2ccc(C)nc21
2. Cc1cc(C)n(-c2ccc(C(=O)Oc3ccc4c(c3)OCO4)cc2)n1

1. 95.7
2. 90.7
